src = patent US20230089582A1

- Target desc: THRβ (Homo sapiens)
- Construct: RXRα and GST-tagged THRβ-LBD
- Sequence (P10828 217-461 limits assumed, other chains not shown): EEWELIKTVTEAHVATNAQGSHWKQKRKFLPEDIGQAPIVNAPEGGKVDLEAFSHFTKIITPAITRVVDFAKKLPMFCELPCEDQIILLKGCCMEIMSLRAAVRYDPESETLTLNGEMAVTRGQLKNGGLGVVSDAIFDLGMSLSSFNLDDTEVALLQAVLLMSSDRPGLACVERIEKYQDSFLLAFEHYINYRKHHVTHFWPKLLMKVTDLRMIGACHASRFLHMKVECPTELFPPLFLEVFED
- Sequence (P19793 whole entry partner, other chains not shown, the tested form may be a part): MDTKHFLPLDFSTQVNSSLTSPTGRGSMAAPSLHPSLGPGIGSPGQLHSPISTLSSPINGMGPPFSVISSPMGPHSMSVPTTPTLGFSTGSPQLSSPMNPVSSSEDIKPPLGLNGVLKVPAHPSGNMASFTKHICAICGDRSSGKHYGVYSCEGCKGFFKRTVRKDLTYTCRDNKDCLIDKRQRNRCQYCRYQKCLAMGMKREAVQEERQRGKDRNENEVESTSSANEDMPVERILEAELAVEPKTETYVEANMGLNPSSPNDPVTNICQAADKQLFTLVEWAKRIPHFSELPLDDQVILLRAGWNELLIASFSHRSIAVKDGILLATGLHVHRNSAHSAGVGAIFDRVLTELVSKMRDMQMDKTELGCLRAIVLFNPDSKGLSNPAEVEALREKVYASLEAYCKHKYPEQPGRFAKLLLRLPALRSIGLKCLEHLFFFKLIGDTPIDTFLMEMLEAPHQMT
- Test description: THRβ binding assay (TR-FRET co-activating peptide recruitment)
- Assay conditions: THRβ-LBD/RXRα, SRC2-2 co-activating peptide recruitment, agonistic effect
Measurement name: EC50 (nM)

Solved cases (4 shown):
> print(dat)
                                   molecule  measurement.name  unit.text  reading
1  CC(C)c1cc(Oc2c(Cl)cc(-n3nc(CF)c(=O)[nH]c3=O)cc2Cl)n[nH]c1=O [Example 2]              EC50         nM        5
2  C=C(C)c1cc(Oc2c(Cl)cc(-n3nc(CF)c(=O)[nH]c3=O)cc2Cl)n[nH]c1=O [Example 18]              EC50         nM     23.6
3  O=c1[nH]nc(Oc2c(Cl)cc(-n3nc(CF)c(=O)[nH]c3=O)cc2Cl)cc1C1CCCCC1 [Example 9]              EC50         nM      101
4  O=c1[nH]nc(Oc2c(Cl)cc(-n3nc(CF)c(=O)[nH]c3=O)cc2Cl)cc1C1CC1 [Example 12]              EC50         nM       71

(A) O=c1[nH]nc(Oc2c(Cl)cc(-n3nc(CF)c(=O)[nH]c3=O)cc2Cl)cc1C1CCCC1 [Example 10]
(B) CC(C)c1cc(Oc2c(Cl)cc(-n3nc(C4CC4)c(=O)[nH]c3=O)cc2Cl)n[nH]c1=O [Example 19]
(C) CC(C)(F)c1cc(Oc2c(Cl)cc(-n3nc(CF)c(=O)[nH]c3=O)cc2Cl)n[nH]c1=O [Example 16]
(D) O=c1[nH]nc(Oc2c(Cl)cc(-n3nc(CF)c(=O)[nH]c3=O)cc2Cl)cc1C1CCC1 [Example 14]
Arrange these molecules by their EC50, starting with the largest number. Answer format: the labels, in the requested order.
B, C, A, D

###

- Test description: in vitro
- Assay conditions: human, microsomes, pH 7.4
Measurement name: half-life at 1 μM (h)

(A) CC(C)c1cc(Oc2c(Cl)cc(-n3nc(CF)c(=O)[nH]c3=O)cc2Cl)n[nH]c1=O
(B) CC(C)c1cc(Oc2c(Cl)cc(-n3nc(C#N)c(=O)[nH]c3=O)cc2Cl)n[nH]c1=O [Control compound 2, MGL-3196, reference compound]
// compare measured half-life at 1 μM, left A , right B , return larger # respond with the chosen item's label
A
(A: 17.1 h, B: 5.18 h)

###

- Test description: in vitro
- Assay conditions: monkey, microsomes, pH 7.4
Measurement name: half-life at 1 μM (min)

(a) CC(C)c1cc(Oc2c(Cl)cc(-n3nc(C#N)c(=O)[nH]c3=O)cc2Cl)n[nH]c1=O [Control compound 2, MGL-3196, reference compound]
(b) CC(C)c1cc(Oc2c(Cl)cc(-n3nc(CF)c(=O)[nH]c3=O)cc2Cl)n[nH]c1=O
Kindly identify the item with the lower half-life at 1 μM figure among these two: a and b Refer to your chosen entry by its label in the reply.
a

###

- Test description: in vitro
- Assay conditions: human, microsomes, pH 7.4
Measurement name: microsomal CLint at 1 μM (µL/min/mg)

(A) CC(C)c1cc(Oc2c(Cl)cc(-n3nc(C#N)c(=O)[nH]c3=O)cc2Cl)n[nH]c1=O [Control compound 2, MGL-3196, reference compound]
(B) CC(C)c1cc(Oc2c(Cl)cc(-n3nc(CF)c(=O)[nH]c3=O)cc2Cl)n[nH]c1=O
Recorded microsomal CLint at 1 μM values differ for A and B ; which one is higher? Answer with the label corresponding to your selection.
A
